koff values, listed per item
# system: MD145 virus-like particle (GII.4, capsid protein VP1) (Norovirus GII.4 strain MD145-12)
# assay-text: SPR (Biacore 1000), Fab on MD145 virus-like particle
readout-type: koff (s⁻¹)

| binder | readout-type | reading |
| --- | --- | --- |
| anti-GII.4 NV Fab B72 (Fab, V domains shown) VH: EVQLEQSGAEVKKPGSSVKVSCKISGGTFSRHPISWVRQAPGQGLLWMGAIILRAGTTKYEQRFQGRITITADESTGTAYMELHSLTSEDTGLYFCATDRMGTFDELLFDSWGQGTLVTVSS VL: ELQMTQSPASLSASVGDRVTITCRASQGIRNNLGWYQQKPGKPPKLLIYAASTLQSGVPSRFSGSGSGTGFTLTISSLQPEDFATYYCLQDYDFPLTFGGGTKVEIKR | koff | 5.66e-05 |
| anti-GII.4 NV Fab C9 (Fab, V domains shown) VH: EVQLEESGGVLVKPGGSLRLSCAASGFTFSSHAMHWVRQAPGKGLEWVAIINSGHRADYADSVKDRFTISRDNSKNTLYLQMDSLRPEDTAFYYCAREGDQQDVAD VL: ELTQSPSTLSASVGDRVTITCRASEDIMSYLAWYQQKPAKAPRLLIYYASSLQSGVPSRFSGSGSGTEFTLTISSLQPEDFATYYCQQLHTFPITFGPGTRLDIKRT | koff | 0.00382 |
| anti-GII.4 NV Fab D4 (Fab, V domains shown) VH: EVQLVESGPGLVKPSETLSLTCAVSGASIRRANWWGWIRQAPGKGLEWLGSIFINAGTIYNPSLTGRVTVSADTSKNLFSLKLGSVTAADTAVYYCVKSYGDGDDNYNSFYYYMDVWGKGTSVIVSS VL: DVVMTQSPSSLSASVGDRVTITCRASQDIRNNLAWYQHKPGKAPKLLIYYASKLQSGVPLRFSGSGSGTDYTLFISSLQPEDFATYYCQQYKTDTPYSFGQGTKVDIKR | koff | 0.000178 |
| anti-GII.4 NV Fab G3 (Fab, V domains shown) VH: EVQLEQSGGGLVKPGGSLRLSCAGSGFSFSAHTINWVRQAPGKGLEWVGFIRSQAQGGTREYAASVKGRIILSRDDSENSAYLQMNSLNTGDTAVYYCARDSSRGYYSYYLDVWGKGTTVTVSS VL: ELTQSPSSLSASVGDRVTITCRASQGISNRLNWYQQKPGKAPKLLIYDASSLESGVPSRFSGSGSGTDFTLTISSQQPEDFATYYCQQFNSYPLTFGGGTKVEIKR | koff | 0.000421 |
